Each record here notes measured inhibition.
Biological target: N-terminal Xaa-Pro-Lys N-methyltransferase 1 (Homo sapiens) (UniProt Q9BV86)
Assay: Inhibition of NTMT1 in human HCT116 cells assessed as decrease in me3-SPK level at 100 uM incubated for 3 days by Western blot analysis relative to control
Type: cell-based
Conditions: HCT-116, time 3.0 day
MEASUREMENT_NAME: inhibition (%)

[[record]]
structure_notation = "NCCCC[C@H](NC(=O)[C@@H]1CCCN1C(=O)Cc1cccc2ccccc12)C(=O)Nc1cccc(C(N)=O)c1"
measurement_name = "inhibition"
unit_text = "%"
readout_number = 10

[[record]]
structure_notation = "N=C(N)NCCC[C@H](NC(=O)[C@H](CCCCN)NC(=O)[C@@H]1CCCN1C(=O)Cc1cccc2ccccc12)C(N)=O"
measurement_name = "inhibition"
unit_text = "%"
readout_number = 3

[[record]]
structure_notation = "NCCCC[C@H](NC(=O)[C@@H]1CCCN1C(=O)Cc1cccc2ccccc12)C(=O)Nc1ccccc1C(N)=O"
measurement_name = "inhibition"
unit_text = "%"
readout_number = 61

[[record]]
structure_notation = "CN(C(=O)[C@H](CCCCN)NC(=O)[C@@H]1CCCN1C(=O)Cc1cccc2ccccc12)[C@@H](CCCCN)C(N)=O"
measurement_name = "inhibition"
unit_text = "%"
readout_number = 0

[[record]]
structure_notation = "C[C@@H](C(N)=O)N(C)C(=O)[C@H](CCCCN)NC(=O)[C@@H]1CCCN1C(=O)Cc1cccc2ccccc12"
measurement_name = "inhibition"
unit_text = "%"
readout_number = 0

[[record]]
structure_notation = "NCCCC[C@H](NC(=O)[C@@H]1CCCN1C(=O)Cc1cccc2ccccc12)C(=O)Nc1cccc2ccccc12"
measurement_name = "inhibition"
unit_text = "%"
readout_number = 0

[[record]]
structure_notation = "NCCCC[C@H](NC(=O)[C@@H]1CCCN1C(=O)Cc1cccc2ccccc12)C(=O)Nc1ccccc1"
measurement_name = "inhibition"
unit_text = "%"
readout_number = 0


====

Target: N-terminal Xaa-Pro-Lys N-methyltransferase 1 (Homo sapiens)
Experiment: Inhibition of NTMT1 in human HCT116 cells assessed as decrease in me3-RCC1 level incubated for 3 days by Western blot analysis
Assay type: cell-based, HCT-116
MEASUREMENT_NAME: IC50 (µM)

[[record]]
structure_notation = "NCCCC[C@H](NC(=O)[C@@H]1CCCN1C(=O)Cc1cccc2ccccc12)C(=O)Nc1ccccc1C(N)=O"
readout_number = 100


====

Target: N-terminal Xaa-Pro-Lys N-methyltransferase 1 (Homo sapiens) (UniProt Q9BV86)
Experiment: Inhibition of NTMT1 in human HCT116 cells assessed as decrease in me3-SPK level at 300 uM incubated for 3 days by Western blot analysis relative to control
Type: cell-based
Conditions: HCT-116, time 3.0 day
Each record here notes measured inhibition.
MEASUREMENT_NAME: inhibition (%)

[[record]]
structure_notation = "NCCCC[C@H](NC(=O)[C@@H]1CCCN1C(=O)Cc1cccc2ccccc12)C(=O)Nc1cccc2ccccc12"
target_or_test_system = "N-terminal Xaa-Pro-Lys N-methyltransferase 1 (Homo sapiens) (UniProt Q9BV86)"
measurement_name = "inhibition"
readout_number = 1

[[record]]
structure_notation = "C[C@@H](C(N)=O)N(C)C(=O)[C@H](CCCCN)NC(=O)[C@@H]1CCCN1C(=O)Cc1cccc2ccccc12"
target_or_test_system = "N-terminal Xaa-Pro-Lys N-methyltransferase 1 (Homo sapiens) (UniProt Q9BV86)"
measurement_name = "inhibition"
readout_number = 3

[[record]]
structure_notation = "NCCCC[C@H](NC(=O)[C@@H]1CCCN1C(=O)Cc1cccc2ccccc12)C(=O)Nc1ccccc1C(N)=O"
target_or_test_system = "N-terminal Xaa-Pro-Lys N-methyltransferase 1 (Homo sapiens) (UniProt Q9BV86)"
measurement_name = "inhibition"
readout_number = 90


====

Biological target: UniProt Q9BV86
Sequence (Q9BV86 whole entry): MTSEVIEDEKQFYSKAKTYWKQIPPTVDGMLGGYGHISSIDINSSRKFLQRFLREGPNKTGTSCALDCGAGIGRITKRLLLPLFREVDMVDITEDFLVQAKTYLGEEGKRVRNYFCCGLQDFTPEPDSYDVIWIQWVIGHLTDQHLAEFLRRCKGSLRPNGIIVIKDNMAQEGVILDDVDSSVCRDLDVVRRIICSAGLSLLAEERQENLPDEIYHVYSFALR
Assay: Inhibition of recombinant human N-terminal His6-tagged NTMT1 (1 to 222 residues) expressed in Escherichia coli BL21-CodonPlus(DE3)-RIL using GPKRIA peptide and SAM as substrate pre-incubated for 10 mins in presence of SAM followed by substrate addition by SAHH coupled fluorescence assay
pIC50: −log10 of the molar value.
Each record here notes measured pIC50.
MEASUREMENT_NAME: pIC50

[[record]]
structure_notation = "C[C@@H](C(N)=O)N(C)C(=O)[C@H](CCCCN)NC(=O)[C@@H]1CCCN1C(=O)Cc1cccc2ccccc12"
readout_number = 6.24

[[record]]
structure_notation = "NCCCC[C@H](NC(=O)[C@@H]1CCCN1C(=O)Cc1cccc2ccccc12)C(=O)Nc1cccc2ccccc12"
readout_number = 6.01

[[record]]
structure_notation = "NCCCC[C@H](NC(=O)[C@@H]1CCCN1C(=O)Cc1cccc2ccccc12)C(=O)Nc1ccccc1"
readout_number = 5.96

[[record]]
structure_notation = "N=C(N)NCCC[C@H](NC(=O)[C@H](CCCCN)NC(=O)[C@@H]1CCCN1C(=O)Cc1cccc2ccccc12)C(N)=O"
readout_number = 7.00


====

Target: N-terminal Xaa-Pro-Lys N-methyltransferase 1 (Homo sapiens) (UniProt Q9BV86)
Sequence (whole entry): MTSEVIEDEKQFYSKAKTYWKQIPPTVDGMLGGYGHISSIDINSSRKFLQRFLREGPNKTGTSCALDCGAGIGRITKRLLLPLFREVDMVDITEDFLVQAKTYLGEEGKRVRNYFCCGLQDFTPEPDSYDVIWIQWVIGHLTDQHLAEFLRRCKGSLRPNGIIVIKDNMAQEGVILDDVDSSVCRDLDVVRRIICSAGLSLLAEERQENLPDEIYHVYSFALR
Experiment: Inhibition of NTMT1 in human HCT116 cells assessed as decrease in me3-SPK level at 1 mM incubated for 3 days by Western blot analysis relative to control
Assay type: cell-based
Settings: HCT-116, time 3.0 day
Quick rule for you: inhibition at 80% or higher means 1, lower means -1.

[[record]]
structure_notation = "NCCCC[C@H](NC(=O)[C@@H]1CCCN1C(=O)Cc1cccc2ccccc12)C(=O)Nc1ccccc1C(N)=O"
target_or_test_system = "N-terminal Xaa-Pro-Lys N-methyltransferase 1 (Homo sapiens) (UniProt Q9BV86)"
answer_label = 1

[[record]]
structure_notation = "N=C(N)NCCC[C@H](NC(=O)[C@H](CCCCN)NC(=O)[C@@H]1CCCN1C(=O)Cc1cccc2ccccc12)C(N)=O"
target_or_test_system = "N-terminal Xaa-Pro-Lys N-methyltransferase 1 (Homo sapiens) (UniProt Q9BV86)"
answer_label = -1

[[record]]
structure_notation = "CN(C(=O)[C@H](CCCCN)NC(=O)[C@@H]1CCCN1C(=O)Cc1cccc2ccccc12)[C@@H](CCCCN)C(N)=O"
target_or_test_system = "N-terminal Xaa-Pro-Lys N-methyltransferase 1 (Homo sapiens) (UniProt Q9BV86)"
answer_label = 1

[[record]]
structure_notation = "C[C@@H](C(N)=O)N(C)C(=O)[C@H](CCCCN)NC(=O)[C@@H]1CCCN1C(=O)Cc1cccc2ccccc12"
target_or_test_system = "N-terminal Xaa-Pro-Lys N-methyltransferase 1 (Homo sapiens) (UniProt Q9BV86)"
answer_label = -1

[[record]]
structure_notation = "NCCCC[C@H](NC(=O)[C@@H]1CCCN1C(=O)Cc1cccc2ccccc12)C(=O)Nc1cccc2ccccc12"
target_or_test_system = "N-terminal Xaa-Pro-Lys N-methyltransferase 1 (Homo sapiens) (UniProt Q9BV86)"
answer_label = -1

[[record]]
structure_notation = "NCCCC[C@H](NC(=O)[C@@H]1CCCN1C(=O)Cc1cccc2ccccc12)C(=O)Nc1cccc(C(N)=O)c1"
target_or_test_system = "N-terminal Xaa-Pro-Lys N-methyltransferase 1 (Homo sapiens) (UniProt Q9BV86)"
answer_label = 1


====

Molecular target: N-terminal Xaa-Pro-Lys N-methyltransferase 1 (Homo sapiens)
Assay: Inhibition of recombinant human N-terminal His6-tagged NTMT1 (1 to 222 residues) expressed in Escherichia coli BL21-CodonPlus(DE3)-RIL using GPKRIA peptide and SAM as substrate pre-incubated for 10 mins in presence of SAM followed by substrate addition by SAHH coupled fluorescence assay
pIC50: −log10 of the molar value.
Each record here notes measured pIC50.
MEASUREMENT_NAME: pIC50

[[record]]
structure_notation = "NCCCC[C@H](NC(=O)[C@@H]1CCCN1C(=O)Cc1cccc2ccccc12)C(=O)Nc1cccc(C(N)=O)c1"
measurement_name = "pIC50"
relation = "="
readout_number = 6.89

[[record]]
structure_notation = "NCCCC[C@H](NC(=O)[C@@H]1CCCN1C(=O)Cc1cccc2ccccc12)C(=O)N[C@@H](CCC(=O)O)C(N)=O"
measurement_name = "pIC50"
relation = "="
readout_number = 5.38

[[record]]
structure_notation = "CN(C(=O)[C@H](CCCCN)NC(=O)[C@@H]1CCCN1C(=O)Cc1cccc2ccccc12)[C@@H](CCCCN)C(N)=O"
measurement_name = "pIC50"
relation = "="
readout_number = 6.33

[[record]]
structure_notation = "N=C(N)NCCC[C@H](NC(=O)[C@H](CCCCN)NC(=O)[C@@H]1CCCN1C(=O)Cc1cccc2ncccc12)C(N)=O"
measurement_name = "pIC50"
relation = "<"
readout_number = 4.00

